Provenance of the data: the supplement of paper PMC10307832

// values below are reported relative viability
Tested on: NCI-H838
Test protocol: relative viability (nuclei count vs DMSO), 5 days (fraction); higher = more cells survive
Settings: first compound 0.02 µM
The reply should be a number, written without any unit.

Compound	relative viability
CCNC(=O)c1noc(-c2cc(C(C)C)c(O)cc2O)c1-c1ccc(CN2CCOCC2)cc1 [Luminespib] + COc1cccc2cc(-c3nc([C@H]4CC[C@H](C(=O)O)CC4)n4ncnc(N)c34)[nH]c12 [OSI-027] (partner 0.5 µM)	0.275

Let us examine a further case.
Recorded relative viability for CN1CCN(CCOc2cc(OC3CCOCC3)c3c(Nc4c(Cl)ccc5c4OCO5)ncnc3c2)CC1 [Saracatinib] + CC(=O)Nc1cccc(-n2c(=O)n(C3CC3)c(=O)c3c(Nc4ccc(I)cc4F)n(C)c(=O)c(C)c32)c1 [Trametinib] (partner 0.02 µM) , please?
0.54

----------
Test system: H3255
Test protocol: relative viability (nuclei count vs DMSO), 5 days (fraction); higher = more cells survive
Settings: first compound 0.6325 µM
// values below are reported relative viability
The reply should be a number, written without any unit.

For orientation, consider the following solved cases.
Molecule	Measured on	relative viability
Cc1csc(=NC2CCCCC2)n1/N=C/c1ccc(O)c(O)c1O [MIM1] + Nc1nc2[nH]cc(CCc3ccc(C(=O)N[C@@H](CCC(=O)O)C(=O)O)cc3)c2c(=O)[nH]1 [Pemetrexed] (partner 0.2 µM)	H3255	0.553
Cc1csc(=NC2CCCCC2)n1/N=C/c1ccc(O)c(O)c1O [MIM1] + N=C(N)NC(=N)NCCc1ccccc1 [Phenformin] (partner 250 µM)	H3255	0.386

Let us examine a further case.
Recorded relative viability for CN1CCN(CCOc2cc(OC3CCOCC3)c3c(Nc4c(Cl)ccc5c4OCO5)ncnc3c2)CC1 [Saracatinib] + O=C(CCCCCCC(=O)Nc1ccccc1)NO [Vorinostat] (partner 1 µM) , please?
0.965

----------
Test system: NCI-H838
Test protocol: relative viability (nuclei count vs DMSO), 5 days (fraction); higher = more cells survive
Settings: first compound 0.8 µM
Checkbox rule: relative viability lower than 0.7 = satisfied; relative viability not lower than 0.7 = not satisfied.

Compound	Label
Nc1cccc2c1CN(C1CCC(=O)NC1=O)C2=O (stereo unspecified) [Lenalidomide] + Cc1nc(NC(=O)N2CCC[C@H]2C(N)=O)sc1-c1ccnc(C(C)(C)C(F)(F)F)c1 [Alpelisib] (partner 2 µM)	not satisfied

Answer whether the compound Nc1cccc2c1CN(C1CCC(=O)NC1=O)C2=O (stereo unspecified) [Lenalidomide] + Cc1nc(Nc2ncc(C(=O)Nc3c(C)cccc3Cl)s2)cc(N2CCN(CCO)CC2)n1 [Dasatinib] (partner 0.075 µM) has relative viability strictly less than 0.7
satisfied

And Nc1cccc2c1CN(C1CCC(=O)NC1=O)C2=O (stereo unspecified) [Lenalidomide] + CS(=O)(=O)CCNCc1ccc(-c2ccc3ncnc(Nc4ccc(OCc5cccc(F)c5)c(Cl)c4)c3c2)o1 [Lapatinib] (partner 2 µM) ?
not satisfied

And Nc1cccc2c1CN(C1CCC(=O)NC1=O)C2=O (stereo unspecified) [Lenalidomide] + O=C(c1cc(Cc2n[nH]c(=O)c3ccccc23)ccc1F)N1CCN(C(=O)C2CC2)CC1 [Olaparib] (partner 8 µM) ?
not satisfied

And Nc1cccc2c1CN(C1CCC(=O)NC1=O)C2=O (stereo unspecified) [Lenalidomide] + Nc1nc2[nH]cc(CCc3ccc(C(=O)N[C@@H](CCC(=O)O)C(=O)O)cc3)c2c(=O)[nH]1 [Pemetrexed] (partner 0.2 µM) ?
satisfied

----------
// values below are reported relative viability
Tested on: LC-2-ad
Test protocol: relative viability (nuclei count vs DMSO), 5 days (fraction); higher = more cells survive
Settings: first compound 0.06325 µM
The reply should be a number, written without any unit.

Compound	relative viability
CCNC(=O)c1noc(-c2cc(C(C)C)c(O)cc2O)c1-c1ccc(CN2CCOCC2)cc1 [Luminespib] + C[C@@H](Oc1cc(-c2cnn(C3CCNCC3)c2)cnc1N)c1c(Cl)ccc(F)c1Cl [Crizotinib] (partner 1 µM)	0.289
CCNC(=O)c1noc(-c2cc(C(C)C)c(O)cc2O)c1-c1ccc(CN2CCOCC2)cc1 [Luminespib] + N=C(N)NC(=N)NCCc1ccccc1 [Phenformin] (partner 250 µM)	0.25

Recorded relative viability for CCNC(=O)c1noc(-c2cc(C(C)C)c(O)cc2O)c1-c1ccc(CN2CCOCC2)cc1 [Luminespib] + O=C(c1cc(Cc2n[nH]c(=O)c3ccccc23)ccc1F)N1CCN(C(=O)C2CC2)CC1 [Olaparib] (partner 8 µM) , please?
0.48

And CCNC(=O)c1noc(-c2cc(C(C)C)c(O)cc2O)c1-c1ccc(CN2CCOCC2)cc1 [Luminespib] + Cc1nc(Nc2ncc(C(=O)Nc3c(C)cccc3Cl)s2)cc(N2CCN(CCO)CC2)n1 [Dasatinib] (partner 0.075 µM) ?
0.142

And CCNC(=O)c1noc(-c2cc(C(C)C)c(O)cc2O)c1-c1ccc(CN2CCOCC2)cc1 [Luminespib] + Cc1cc(Nc2cc(N3CCN(C)CC3)nc(Sc3ccc(NC(=O)C4CC4)cc3)n2)n[nH]1 [Tozasertib] (partner 0.1 µM) ?
0.258

----------
// values below are reported relative viability
Tested on: NCI-H1993
Test protocol: relative viability (nuclei count vs DMSO), 5 days (fraction); higher = more cells survive
Settings: first compound 0.002 µM

For orientation, consider the following solved cases.
Compound	Measured on	relative viability
CCNC(=O)c1noc(-c2cc(C(C)C)c(O)cc2O)c1-c1ccc(CN2CCOCC2)cc1 [Luminespib] + CS(=O)(=O)CCNCc1ccc(-c2ccc3ncnc(Nc4ccc(OCc5cccc(F)c5)c(Cl)c4)c3c2)o1 [Lapatinib] (partner 2 µM)	NCI-H1993	0.874
CCNC(=O)c1noc(-c2cc(C(C)C)c(O)cc2O)c1-c1ccc(CN2CCOCC2)cc1 [Luminespib] + CC(C)C[C@H](NC(=O)[C@H](Cc1ccccc1)NC(=O)c1cnccn1)B(O)O [Bortezomib] (partner 0.002 µM)	NCI-H1993	0.998
CCNC(=O)c1noc(-c2cc(C(C)C)c(O)cc2O)c1-c1ccc(CN2CCOCC2)cc1 [Luminespib] + Nc1ncn([C@H]2C[C@H](O)[C@@H](CO)O2)c(=O)n1 [Decitabine] (partner 2 µM)	NCI-H1993	0.596
CCNC(=O)c1noc(-c2cc(C(C)C)c(O)cc2O)c1-c1ccc(CN2CCOCC2)cc1 [Luminespib] + COc1cc2c(Oc3ccc(NC(=O)C4(C(=O)Nc5ccc(F)cc5)CC4)cc3F)ccnc2cc1OCCCN1CCOCC1 [Foretinib] (partner 0.25 µM)	NCI-H1993	0.772

Let us examine a further case.
Recorded relative viability for CCNC(=O)c1noc(-c2cc(C(C)C)c(O)cc2O)c1-c1ccc(CN2CCOCC2)cc1 [Luminespib] + CC(=O)Nc1cccc(-n2c(=O)n(C3CC3)c(=O)c3c(Nc4ccc(I)cc4F)n(C)c(=O)c(C)c32)c1 [Trametinib] (partner 0.02 µM) , please?
0.562

----------
Test system: NCI-H3122
Test protocol: relative viability (nuclei count vs DMSO), 5 days (fraction); higher = more cells survive
Settings: first compound 2 µM
Observable: relative viability
The reply should be a number, written without any unit.

For orientation, consider the following solved cases.
Compound	Observable	Reading
Cc1csc(=NC2CCCCC2)n1/N=C/c1ccc(O)c(O)c1O [MIM1] + CC1(C)CCC(c2ccc(Cl)cc2)=C(CN2CCN(c3ccc(C(=O)NS(=O)(=O)c4ccc(N[C@H](CCN5CCOCC5)CSc5ccccc5)c(S(=O)(=O)C(F)(F)F)c4)cc3)CC2)C1 [Navitoclax] (partner 0.5 µM)	relative viability	1.1
Cc1csc(=NC2CCCCC2)n1/N=C/c1ccc(O)c(O)c1O [MIM1] + CC(C)C[C@H](NC(=O)[C@H](Cc1ccccc1)NC(=O)c1cnccn1)B(O)O [Bortezomib] (partner 0.002 µM)	relative viability	0.999
Cc1csc(=NC2CCCCC2)n1/N=C/c1ccc(O)c(O)c1O [MIM1] + Nc1nc2[nH]cc(CCc3ccc(C(=O)N[C@@H](CCC(=O)O)C(=O)O)cc3)c2c(=O)[nH]1 [Pemetrexed] (partner 0.2 µM)	relative viability	0.219
CN1CCN(CCOc2cc(OC3CCOCC3)c3c(Nc4c(Cl)ccc5c4OCO5)ncnc3c2)CC1 [Saracatinib] + Cc1nc(NC(=O)N2CCC[C@H]2C(N)=O)sc1-c1ccnc(C(C)(C)C(F)(F)F)c1 [Alpelisib] (partner 2 µM)	relative viability	0.46
CN1CCN(CCOc2cc(OC3CCOCC3)c3c(Nc4c(Cl)ccc5c4OCO5)ncnc3c2)CC1 [Saracatinib] + N=C(N)NC(=N)NCCc1ccccc1 [Phenformin] (partner 250 µM)	relative viability	0.285

Let us examine a further case.
Recorded relative viability for Cc1csc(=NC2CCCCC2)n1/N=C/c1ccc(O)c(O)c1O [MIM1] + CCNC(=O)c1noc(-c2cc(C(C)C)c(O)cc2O)c1-c1ccc(CN2CCOCC2)cc1 [Luminespib] (partner 0.01 µM) , please?
0.103
